# System: Twenty-eight-spotted Ladybeetle
# Protocol Text: Contact test for killing Twenty-eight-spotted Ladybeetle
# Assay type: in vivo
# Measurement Conditions: Henosepilachna vigintioctopunctata, in Solanum lycopersicum, 48 h, read-out: LC50 (median lethal dose)
# Experimental: Leaves of tomato were dipped in each emulsion of each active ingredient of the present invention or the reference for 10 seconds. The leaves were taken up and dired in air and put in a Petri dish. […] The Petri dish was maintained in a constant temperature room at 25° C. for 48 hours and percent mortality was determined and median lethal dose (LC50) was calculated in Finny's graphic method.
Observed Property: LC50 (µg/mL)

> print(dat)
                                   compound  recorded.result
1  CC(C)C(C(=O)OC(C#N)c1cccc(Oc2ccccc2)n1)c1ccc(OC(F)F)cc1 (centres unmarked) [Reference Compd. D]              0.9
2  CC1(C)[C@@H](C(=O)OC(C#N)c2ccc(F)c(Oc3ccccc3)n2)[C@@H]1c1ccc(Cl)cc1 (relative stereo)             0.26
3  CC1(C)C(C(=O)OC(C#N)c2cccc(Oc3ccccc3)n2)C1c1ccc(Cl)cc1 (centres unmarked) [Reference Compd. F]                2
4  CC1(C)C(C=C(Cl)Cl)C1C(=O)OC(C#N)c1ccc(F)c(Oc2ccccc2)n1 (centres unmarked)             0.03
5  CC(C)C(C(=O)OC(C#N)c1ccc(F)c(Oc2ccccc2)n1)c1ccc(OC(F)F)cc1 (centres unmarked)              0.5
6  CC(C)C(C(=O)OC(C#N)c1cccc(Oc2ccc(F)cc2)n1)c1ccc(OC(F)F)cc1 (centres unmarked) [Reference Compd. C]               21
7  CC(C)C(C(=O)OC(C#N)c1ccc(F)c(Oc2ccccc2)n1)c1ccc(Cl)cc1 (centres unmarked)             0.05
8  CC1(C)[C@H](C(=O)OC(C#N)c2ccc(F)c(Oc3ccccc3)n2)[C@@H]1C=C(Br)Br (some centres unmarked)             0.02
